B1: TPR 5TU (parent)
chain: GGAUCUUCUCGAUCUAACAAAAAAGACAAAUCUGCCACAAAGCUUGAGAGCAUCUUCGGAUGCAGAGGCGGCAGCCUUCGGUGGCGCGAUAGCGCCAACGUUCUCAACUAUGACACGCAAAACGCGUGCUCCGUUGAAUGGAGUUUAUCAUG

Variants of: B1
Test Name: polymerase ribozyme fitness, log enrichment relative to wild type (log ratio); higher = more active; in vitro selection for triplet polymerase activity
Variants at the floor of the assay were thinned out.
Measured polymerase ribozyme fitness (log ratio) of individual entries
Form: value (number only, do not type unit).

Below, 4 variants whose answers are already recorded.
In [3]: df
Out[3]:
          variant_descriptor                                   metric  measured
0  A37G U56A G84A C85U G133C  polymerase ribozyme fitness (log ratio)     -4.13
1                 G48C G141U  polymerase ribozyme fitness (log ratio)      -1.8
2                  A12C A52G  polymerase ribozyme fitness (log ratio)    -0.179
3                 C18U A142C  polymerase ribozyme fitness (log ratio)    -0.999

Problem: # get_value(readout='polymerase ribozyme fitness (log ratio)', item= A40U A91G )
Solution: -3.33

Problem: Param item = A17G C95U G141A ; retrieve measured polymerase ribozyme fitness (log ratio).
Solution: 0.672

Problem: Item under review: C51U A98U U135C U144A . Reported polymerase ribozyme fitness (log ratio)?
Solution: -3.82

Problem: Consider the variant shown here: C63U G126C What is its recorded polymerase ribozyme fitness (log ratio)?
Solution: 0.627

Problem: # lookup: polymerase ribozyme fitness (log ratio) of G81A G86A U148A
Solution: -3.94

Problem: Entry C51U U56A A73U G86A : reported polymerase ribozyme fitness (log ratio) = ?
Solution: -4.02

Problem: Which measured polymerase ribozyme fitness (log ratio) value corresponds to C63G C69G ?
Solution: -1.75

Problem: Could you share which polymerase ribozyme fitness (log ratio) value was measured for A16U C85G ?
Solution: -3.36

Problem: Fill in: polymerase ribozyme fitness (log ratio) of G92U G94C A106G C123A U145C is ___
Solution: -1.97
